Test: inhibitors of TNFa-induced NFkB p65 translocation, primary screen, imaging, HUVEC, MLSMR starter and 10KST1 sets (AID 438);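 also: compound added about 3h40 before a 20 min TNFalpha stimulation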;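 as to inhibition: signal is the nuclear over cytoplasmic p65 intensity ratio per well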
Conditions: HUVEC TNFa-induced p65 nuclear translocation; at 2 µM, stronger effect = higher value, 0% TNFa-plus-vehicle, 100% no-TNFa wells
Quick reference: inhibition of the listed items.
Unit % implied. Number only.

Answered cases to consult:
CCOC(=O)n1c(=O)oc2cc(S(=O)(=O)N3CCCCC3)ccc21	14.8
COC(=O)/C=c1\sc2ncnn2c1=O	-11
CN1C(=O)C(O)(CC(=O)c2ccc3c(c2)OCO3)c2ccccc21 (centres undefined)	6

Now for a further compound.
Item under review: COc1cc(NC(=O)C2CC(c3cccc(OC)c3OC)=NO2)cc(OC)c1OC (centres undefined) . Reported inhibition?
-12.2

====

Biological target: Voltage-gated potassium channel subunit beta-2 (Rattus norvegicus)
Assay: inhibitors of rat Kvbeta2 reductase activity – biochemical, NADPH fluorescence, primary screen (AID 622);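 also: slope of raw intensity against log time taken from 70 to 1610 s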
Conditions: recombinant KvBeta, 4-cyanobenzaldehyde reduction, at 10 µM
Calls of active or inactive are those of the source.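 Rule for the calls: active = fluorescence slope higher than the sample average by over 3 SD (cut at about -0.22 in these data, passing the limit was not always enough); inactive = the rest.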
# valid calls are active, inactive; nothing else

CC1(C)NC(=O)N(CCCOc2ccc(Br)cc2Cl)C1=O	inactive
Cc1cc(C)n(CCCNC(=O)c2ccc3c(c2)NC(=O)CS3)n1	inactive
c1ccc(CCc2nn3c(Cn4cnc5ccccc54)nnc3s2)cc1	inactive
CC12CN3CC(C)(CN(C1)C3c1ccc(Br)cc1)C2 (configuration not stated)	inactive
CCOC(=O)N1CCN(C(=O)COc2cc(=O)n(C)c3ccccc23)CC1	inactive
CC(=O)NC1=NC(=O)/C(=C/N2CCCCC2)S1	inactive
CCOC(=O)C1=C(CC)Nc2ccccc2N=C1NC(=O)Cn1cnc2ccccc2c1=O	inactive
Cn1c(-c2ccc(F)cc2)cnc1NCc1ccccc1	inactive
COc1ccc(NC(=O)CSc2nc3c(c(=O)n2-c2ccc(F)cc2)SCC3)c(OC)c1	inactive
Nn1c(SCC(=O)Nc2ccccc2)nnc1-c1cccnc1	inactive

Kindly provide the recorded test outcome for the following compound: `CCOC(=O)c1ccc2[nH]c3c(c2c1)CCCCC3=O`
inactive

Kindly provide the recorded test outcome for the following compound: O=C(CSc1nnc(-c2ccco2)n1CC1CCCO1)N1CCCCC1 (configuration not stated)
inactive

Kindly provide the recorded test outcome for the following compound: `CC(=O)CCc1ccc(OCCCCn2cncn2)cc1`
inactive

====

Test: inhibitors of TNFa-induced NFkB p65 translocation, primary screen, imaging, HUVEC, MLSMR starter and 10KST1 sets (AID 438);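 also: compound added about 3h40 before a 20 min TNFalpha stimulation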
Settings: HUVEC TNFa-induced p65 nuclear translocation; measured here: nuclei count (cytotoxicity indicator), at 2.08 µM
Readout label: cell count
Hey, just send me the number, nothing else.

COc1ccc(C(c2sc3nc(C)nn3c2O)N2CCCCC2)cc1 (stereo not drawn)	639

Item under review: `Cc1cc2ncc(-c3ccc(Cl)cc3)c(N)n2n1` . Reported cell count?
930

Item under review: `Cc1nonc1NC(=O)c1ccccc1Br` . Reported cell count?
620

Item under review: `COc1ccc(NC(=O)Nc2ccccc2C)c(OC)c1` . Reported cell count?
371

====

Target: Voltage-gated potassium channel subunit beta-2 (Rattus norvegicus) (UniProt P62483)
Sequence (P62483 whole entry, looked up): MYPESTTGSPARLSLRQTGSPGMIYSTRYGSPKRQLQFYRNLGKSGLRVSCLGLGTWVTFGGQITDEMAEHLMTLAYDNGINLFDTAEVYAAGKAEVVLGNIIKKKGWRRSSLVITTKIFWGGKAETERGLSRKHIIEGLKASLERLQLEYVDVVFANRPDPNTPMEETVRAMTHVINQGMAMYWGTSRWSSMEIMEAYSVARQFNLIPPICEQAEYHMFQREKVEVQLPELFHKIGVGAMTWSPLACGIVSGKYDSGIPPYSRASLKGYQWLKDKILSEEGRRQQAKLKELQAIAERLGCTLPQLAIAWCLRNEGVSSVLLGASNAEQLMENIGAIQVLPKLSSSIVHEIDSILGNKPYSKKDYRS
Test: inhibitors of rat Kvbeta2 reductase activity – biochemical, NADPH fluorescence, primary screen (AID 622);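 also: slope of raw intensity against log time taken from 70 to 1610 s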
Settings: recombinant KvBeta, 4-cyanobenzaldehyde reduction, at 10 µM, stronger effect = higher value
# binning rule on fluorescence slope: interval 1 = under -0.5, interval 2 = from -0.5 up to -0.4, interval 3 = -0.4 and over

Worked examples, 6 compounds total:
Nc1nonc1-n1nnc(C(=O)c2ccccc2)c1-c1ccccc1	interval 1
Cn1c(=O)[nH]c(=O)c2c1nc(NCCCn1ccnc1)n2Cc1ccccc1	interval 1
O=C(Nc1ccccc1C(=O)N1CCOCC1)c1ccncc1	interval 1
COCCOC(=O)c1cc(C(=O)c2cc(F)ccc2O)coc1=N	interval 1
Cc1ccc(Cn2c(SCC(N)=O)nc3c2c(=O)n(C)c(=O)n3C)cc1	interval 3
CC1Cc2nc(SCC(=O)N3CCCc4ccccc43)n(C)c(=O)c2S1 (configuration not stated)	interval 1

Which class is correct for the following compound? CC(C)CC(c1nnnn1C(C)(C)C)N1CCN(C2CCCC2)CC1 (configuration not stated)
interval 3

====

Assay: endothelial E-selectin expression blockers – imaging, HUVEC, immunofluorescence, MLSMR starter and 10KST1 sets, primary screen (AID 487);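 also: 100% = median nuclei count of all wells on the same plate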
Conditions: HUVEC TNFalpha-induced E-selectin immunofluorescence imaging, at 2 µM; measured here: cell number, toxicity
Quick reference: nuclei count of the listed items.
Unit % implied. Number only.

Answered cases to consult:
CCC(=O)c1cc(F)c(N2CCN(C(=O)c3ccco3)CC2)cc1C	104
CC(C)Cn1c2c(c(O)c(C(=O)Nc3ncccc3O)c1=O)CCCC2	105
CC(C)(C)NC(=O)CC(CC(=O)O)c1ccccc1 (stereo not given)	109
O=C(O)c1cccc(NC(=O)C2C3C=CC(C3)C2C(=O)OCC(F)(F)C(F)F)c1 (stereo not given)	98.7
COc1ccccc1OCc1ccc(C(=O)Nc2ccncc2)o1	120
O=C(OC1CCc2ccccc2C1=O)c1ccccc1O (stereo not given)	106
O=C(O)c1[nH]c2ccc(Cl)cc2c1CC(=O)N1CCN(C(=O)c2ccco2)CC1	103
COc1cccc(NC(=O)N2CCC(N3CCCCC3)CC2)c1	119
CC1CCCCN1CCNC(=O)C1CCN(S(=O)(=O)c2cccc3cccnc23)CC1 (stereo not given)	105
Cc1ccc(S(=O)(=O)C2(C(=O)N3CCCCCC3)CC2)cc1	122

Item under review: CC(=O)C1=C(O)C(=O)N(Cc2ccco2)C1c1ccc(F)cc1 (stereo not given) . Reported nuclei count?
98

Item under review: `COC(=O)C1=C(C)NC(C)=C(C(=O)OC)C1c1cc2cc(C)ccc2[nH]c1=O` . Reported nuclei count?
136

Item under review: `COc1ccc(OCc2cccc(C(=O)O)c2)cc1` . Reported nuclei count?
111

Item under review: `CCCn1c(=O)c(C(=O)NCc2ccccn2)c(O)c2ccccc21` . Reported nuclei count?
108

Item under review: `CC(=O)n1nc(-c2ccco2)nc1SCc1ccccc1` . Reported nuclei count?
94.1

Item under review: `CC(=O)NCc1cccc(CNC(C)=O)n1` . Reported nuclei count?
101

Item under review: `Cc1cccc(N(CC(=O)Nc2ccc(CC#N)cc2)S(C)(=O)=O)c1` . Reported nuclei count?
109

====

Quick reference: NADPH fluorescence slope of the listed items.
Molecular target: Voltage-gated potassium channel subunit beta-2 (Rattus norvegicus) (UniProt P62483)
Assay: enhancers of rat Kvbeta2 NADPH turnover – biochemical, NADPH fluorescence, primary screen (AID 623);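 also: fluorescence intensity change per second fitted from 20 to 320 s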
Conditions: Recombinant KvBeta, NADPH fluorescence decrease slope, 10 min; at 10 µM; stronger effect = lower value
Hey, just send me the number, nothing else.

Answered cases to consult:
Cc1cccc(NC(=O)c2oc3c(c2C)C(=O)CC(C)(C)C3)n1	-7.1e-05
Cn1c(-c2ccc(F)cc2)cnc1NCc1ccccc1	-3e-06
O=C(CSc1ccc(-c2ccccc2)nn1)N1CCOCC1	-4.4e-05
O=c1cc(C(F)F)oc2c1ccc1ccccc12	-1.6e-05
C=CCn1c(COc2cccc(C)c2)nnc1SCC(=O)NC(=O)NCc1ccco1	3.1e-05
Cc1ccc2cc(C(c3nnnn3C3CCCC3)N3CCN(c4ccc(F)cc4)CC3)c(=O)[nH]c2c1 (stereo not given)	-4.7e-05

Item under review: `COc1ncnc2c1N=C1CC(C)(C)CC(N)=C1S2` . Reported NADPH fluorescence slope?
-3.5e-05

Item under review: `O=C(Nc1cccc(F)c1)c1ccc2c(c1)OCO2` . Reported NADPH fluorescence slope?
1.2e-05

Item under review: COc1ccc2c(c1)CCc1c(C(=O)N3CC4(C)CC3CC(C)(C)C4)noc1-2 (stereo not given) . Reported NADPH fluorescence slope?
-1.4e-05

Item under review: `Cc1ccc(-c2nnc3c4ccccc4c(C)nn23)cc1S(=O)(=O)N1CCN(C)CC1` . Reported NADPH fluorescence slope?
-2.9e-05

Item under review: CC(=O)Nc1nc2c(c3c1c(=O)oc1ccccc13)CC(C)CC2 (stereo not given) . Reported NADPH fluorescence slope?
-1.3e-05

Item under review: `CCOC(=O)c1c(COC(=O)c2ccco2)nc2ccccc2[n+]1[O-]` . Reported NADPH fluorescence slope?
-4.6e-05

====

Test: blockers of RIG-like receptor reporter activation – cell-based, Sendai virus stimulus, luciferase, 10K MLSCN set, TLR/RLR signaling modifier project, primary screen (AID 602276);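 also: firefly luciferase from ISG56 promoter only with Renilla not read in this screen; 0% = Sendai virus plus DMSO and 100% = medium plus DMSO without virus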
Conditions: HEK293 RL24 IRF3 luciferase reporter, at 10 µM, stronger effect = higher value
Readout label: inhibition (%)
Unit % implied. Number only.

Answered cases to consult:
CC(C)n1nnnc1SCC(=O)Nc1ccccc1N1CCOCC1	10.2
CCOC(=O)CSc1nc2cc(C(=O)N3CCC(C(N)=O)CC3)ccc2c(=O)n1-c1ccccc1	10.8
O=C(Nc1ccc(Cl)cc1)N1CCSCC1	-2.29
NC1=NC(c2ccc(Br)cc2)n2c(nc3ccccc32)N1 (stereo not drawn)	17.6
COc1cccc(NC(=O)c2ccccc2NS(C)(=O)=O)c1	18.7

Item under review: Cc1ccc(F)cc1NC(=O)C1CCCN(c2ncccn2)C1 (stereo not drawn) . Reported inhibition?
7.51

Item under review: `CCCCn1c(SCC(=O)OCC)nc2c1c(=O)[nH]c(=O)n2C` . Reported inhibition?
13.7

Item under review: `COc1ccc(NC(=O)c2oc3ccc(S(=O)(=O)N4CCC5(CC4)OCCO5)cc3c2C)cc1` . Reported inhibition?
3.21
